B1: PTPRD (parent)
chain: ITWFKDFLPVDTSNNNGRIKQLRS

variants of: B1; assay: protein stability index of a GFP-peptide fusion (GPS, HEK-293T) (PSI 1-6); higher = more stable; conditions: c terminus: a fixed tail appended;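 further: lentivirally expressed fusions sorted by FACS into six bins by GFP to DsRed ratio, PSI derived from sequencing read proportions per bin multiplied by bin number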
quantityName: protein stability index
Answer with the value's number alone.

Recorded results for 10 variants are shown here.
{"polymerSequence": "DTWFKDFLPVDTSNNNGRIKQLRS", "quantityName": "protein stability index", "dataValue": 3.88}
{"polymerSequence": "ITWFKDFLPVDTSNNNGRILQLRS", "quantityName": "protein stability index", "dataValue": 2}
{"polymerSequence": "ITWFKDFLPVDTSNNNGRIKQRRS", "quantityName": "protein stability index", "dataValue": 1.83}
{"polymerSequence": "ITWFKDFFPVDTSNNNGRIKQLRS", "quantityName": "protein stability index", "dataValue": 1.88}
{"polymerSequence": "ITWFKDFLPVDTSNNNGRIKQLVS", "quantityName": "protein stability index", "dataValue": 1.91}
{"polymerSequence": "ITWFKDFLPVDTSNNNGRIKQLGS", "quantityName": "protein stability index", "dataValue": 1.74}
{"polymerSequence": "ITWFKDFLPVDTSNNMGRIKQLRS", "quantityName": "protein stability index", "dataValue": 1.43}
{"polymerSequence": "ITWFKDFLPVDTSNNNRRIKQLRS", "quantityName": "protein stability index", "dataValue": 1.5}
{"polymerSequence": "ITWFKEFLPVDTSNNNGRIKQLRS", "quantityName": "protein stability index", "dataValue": 2.36}
{"polymerSequence": "ITWFKWFLPVDTSNNNGRIKQLRS", "quantityName": "protein stability index", "dataValue": 2.26}

Data point: "ITWFKDLLPVDTSNNNGRIKQLRS" ; protein stability index = 2.41

Data point: "ITWFKVFLPVDTSNNNGRIKQLRS" ; protein stability index = 2.3
